Assay: NCI Yeast Anticancer Drug Screen. Data for the mec2-1 strain (AID 157)
Conditions: S. cerevisiae mec2-1 strain, at 50.0 µM
About 79,000 compounds went through this panel and 15% of them were active in at least one assay; those are over-represented in the sample as a whole. Active and inactive are the calls of the source. Rule as the data show it: active = growth inhibition above about 70%; inactive = the rest.
Write down the outcome that applies. Available outcomes: t (active), f (inactive)

molecule	group
Cc1cc(C(O)CCCc2ccccc2)cc(C)c1O (stereo unspecified)	f

Test call, this molecule: CC(=O)C1C(=O)C(=O)N(c2ccc(Br)cc2)C1=O (stereo unspecified)
f

What was the test verdict on O=C1C2C3(CCl)C1C23CCl (stereo unspecified) ?
f

Just curious, what result did CCOC(=O)Cc1nc2ncncc2[nH]c1=O get here?
f

Please state the recorded outcome for this molecule: CCOc1cc(/C=N/NC(=O)C(O)C(O)C(O)C(O)CO)ccc1O (stereo unspecified)
f

What classification did COc1ccc(/C(=C/n2ccnc2)C(=O)c2ccc(OC)c(OC)c2)cc1 end up with in this test?
f
